- Subject of test: AAT (Homo sapiens, UniProt P01009, E366K)
- Construct: expressed in transfected cells; host or cells: NL20 human bronchial epithelial cells (NL20-SI cell line), with doxycycline added alongside the compounds
- Sequence (P01009 25-418 E366K): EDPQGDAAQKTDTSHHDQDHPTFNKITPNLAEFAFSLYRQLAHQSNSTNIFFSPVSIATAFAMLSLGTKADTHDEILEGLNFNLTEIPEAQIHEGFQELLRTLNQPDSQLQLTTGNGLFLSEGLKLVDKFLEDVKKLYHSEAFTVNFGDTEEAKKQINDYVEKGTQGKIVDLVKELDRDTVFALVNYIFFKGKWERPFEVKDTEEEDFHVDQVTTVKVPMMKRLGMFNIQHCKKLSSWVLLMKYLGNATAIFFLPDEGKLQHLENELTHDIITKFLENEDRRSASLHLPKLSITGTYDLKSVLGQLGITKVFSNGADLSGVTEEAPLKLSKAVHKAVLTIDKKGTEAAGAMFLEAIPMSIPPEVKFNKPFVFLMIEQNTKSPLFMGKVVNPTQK
- Assay: Compound Quality score (potency in AAT functional assay multiplied by unbound clearance)
- Stated conditions: compound potency (EC50) x unbound clearance; class symbols
Measurement label: Compound Quality

>>> observed_result("[2H]C([2H])([2H])C([2H])([2H])C(O)(COC)c1c(-c2ccc(C(=O)O)cc2)c2c(F)c3[nH]ncc3cc2n1-c1ccc(F)c(F)c1 (stereo not drawn) [Compound 34]")
"++++ (“++++” means ≤0.2)"
>>> observed_result("[2H]C([2H])([2H])Oc1cc(-n2c(C3(O)CCCC[C@@H]3OC)c(-c3ccc(C(=O)O)c(C)c3)c3c(F)c4[nH]ncc4cc32)ccc1F (stereo partly drawn)")
"++++ (“++++” means ≤0.2)"

====

- Assay: Exposure multiple in rat 5-day toxicology studies
- Assay type: in vivo
- Parameters: key: ratio of tox-species AUC to target efficacious AUCss
- Stated conditions: rat 5-day toxicology study, Bid dose 500 (daily 1000); vs predicted human efficacious exposure
List of Exposure Multiple values.
# answer = number (no unit)

Some solved entries appear below for comparison.
>>> observed_result("CC[C@@](O)(COC)c1c(-c2ccc(C(=O)O)cc2)c2c(F)c3[nH]ncc3cc2n1-c1ccc(F)c(C)c1 [Compound 2]")
40
>>> observed_result("CC[C@](O)(COC)c1c(-c2ccc(C(=O)O)cc2)c2cc3[nH]ncc3cc2n1-c1ccc(F)c(Cl)c1 [reference compound]")
2
>>> observed_result("CC[C@@](O)(COC)c1c(-c2ccc(C(=O)O)cc2)c2c(F)c3[nH]ncc3cc2n1-c1ccc(F)cc1 [Compound 1]")
126

// next entry
Return Exposure Multiple (reported value) for this compound: CC[C@@](O)(COC)c1c(-c2ccc(C(=O)O)cc2)c2c(F)c3[nH]ncc3cc2n1-c1ccc(F)c(OC)c1 [Compound 3]
60

====

- Assay: Exposure multiple in rat 5-day toxicology studies
- Type: in vivo
- Stated conditions: based on the maximum exposure multiple achieved in the rat 5-day toxicology study
- Text: “Exposure multiple” as used herein, refers to an assessment of relative compound exposure in toxicology studies. The calculation of an exposure multiple is accomplished by comparing the exposure (AUC) achieved in a toxicology species relative to the target efficacious exposure at steady state (AUCss). The larger exposure multiple provides the opportunity to explore higher doses relative to efficacious concentration in clinical development. […]
Measurement label: EM Score

>>> observed_result("COCC(C)(C)c1c(-c2ccc(C(=O)O)cc2)c2cc3[nH]ncc3cc2n1-c1ccc(F)cc1 [reference compound]")
"++ (“++” means 10-20)"
>>> observed_result("CCC(O)(COC)c1c(-c2ccc(C(=O)O)cc2)c2cc3[nH]ncc3cc2n1-c1ccc(F)cc1 (stereo not drawn) [reference compound]")
"++ (“++” means 10-20)"

====

- Subject of test: AAT (Homo sapiens, UniProt P01009, E366K)
- Construct: expressed in transfected cells; host or cells: NL20 human bronchial epithelial cells (NL20-SI cell line), with doxycycline added alongside the compounds
- Assay: Compound Quality score (potency in AAT functional assay multiplied by unbound clearance)
- Stated conditions: compound potency (EC50) x unbound clearance; class symbols
Measurement label: Compound Quality

>>> observed_result("CCC(O)(COC)c1c(-c2ccc(C(=O)O)c(C)c2)c2c(F)c3[nH]ncc3cc2n1-c1ccc(F)cc1 (stereo not shown) [Compound 35]")
"++++ (“++++” means ≤0.2)"
>>> observed_result("COC1CCCCC1(O)c1c(-c2ccc(C(=O)O)cc2)c2c(F)c3[nH]ncc3cc2n1-c1ccc(F)cc1 (stereo not shown) [Compound 26]")
"++++ (“++++” means ≤0.2)"

====

- Assay: Exposure multiple in rat 5-day toxicology studies
- Type: in vivo
- Stated conditions: based on the maximum exposure multiple achieved in the rat 5-day toxicology study
Measurement label: EM Score

>>> observed_result("CC(C)(CC#N)c1c(-c2ccc(C(=O)O)cc2)c2cc3[nH]ncc3cc2n1-c1ccc(F)cc1 [reference compound]")
"+ (“+” means 1-10)"
>>> observed_result("CC[C@](O)(COC)c1c(-c2ccc(C(=O)O)cc2)c2cc3[nH]ncc3cc2n1-c1ccc(F)c(Cl)c1 [reference compound]")
"+ (“+” means 1-10)"

====

- Subject of test: AAT (Homo sapiens, UniProt P01009, E366K)
- Construct: expressed in transfected cells; host or cells: NL20 human bronchial epithelial cells (NL20-SI cell line), with doxycycline added alongside the compounds
- Assay: Compound Quality score (potency in AAT functional assay multiplied by unbound clearance)
- Stated conditions: compound potency (EC50) x unbound clearance; class symbols
- Method: As used herein, the term “Compound Quality” refers to the potency of a compound multiplied (x) by the compound's unbound clearance as measured using the assays described in Example 6. […] The values provided in the table below are calculated by multiplying the EC50 of each of the compounds by the result from the clearance assay procedures described in Section C above and rounded to two significant figures. […]
Measurement label: Compound Quality

>>> observed_result("[2H]C1([2H])C([2H])([2H])C([2H])([2H])[C@](O)(c2c(-c3ccc(C(=O)O)cc3)c3c(F)c4[nH]ncc4cc3n2-c2ccc(F)c(OC)c2)[C@@]([2H])(OC)C1([2H])[2H] [Compound 30]")
"++++ (“++++” means ≤0.2)"
>>> observed_result("[2H]C([2H])([2H])Oc1cc(-n2c(C3(O)CCCCC3OC)c(-c3ccc(C(=O)O)cc3)c3c(F)c4[nH]ncc4cc32)ccc1F (stereo not drawn) [Compound 22]")
"++++ (“++++” means ≤0.2)"

====

- Assay: Exposure multiple in rat 5-day toxicology studies
- Assay type: in vivo
- Parameters: key: ratio of tox-species AUC to target efficacious AUCss
- Stated conditions: rat 5-day toxicology study, Bid dose 200 (daily 400); vs predicted human efficacious exposure
Measurement label: Exposure Multiple
# answer = number (no unit)

Some solved entries appear below for comparison.
>>> observed_result("CC[C@@](O)(COC)c1c(-c2ccc(C(=O)O)cc2)c2c(F)c3[nH]ncc3cc2n1-c1ccc(F)c(C)c1")
10
>>> observed_result("CC[C@@](O)(COC)c1c(-c2ccc(C(=O)O)cc2)c2c(F)c3[nH]ncc3cc2n1-c1ccc(F)c(Cl)c1")
21
>>> observed_result("CC[C@@](O)(COC)c1c(-c2ccc(C(=O)O)cc2)c2c(F)c3[nH]ncc3cc2n1-c1ccc(F)c(OC)c1")
17

Return Exposure Multiple (reported value) for this molecule: CC[C@@](O)(COC)c1c(-c2ccc(C(=O)O)cc2)c2c(F)c3[nH]ncc3cc2n1-c1ccc(F)cc1
82

====

- Assay: Exposure multiple in rat 5-day toxicology studies
- Format: in vivo
- Parameters: key: ratio of tox-species AUC to target efficacious AUCss
- Stated conditions: rat 5-day toxicology study, Bid dose 50 (daily 100); vs predicted human efficacious exposure
Measurement label: Exposure Multiple
# answer = number (no unit)

Some solved entries appear below for comparison.
>>> observed_result("COCC(C)(C)c1c(-c2ccc(C(=O)O)cc2)c2cc3[nH]ncc3cc2n1-c1ccc(F)cc1 [reference compound]")
13
>>> observed_result("CC[C@@](O)(COC)c1c(-c2ccc(C(=O)O)cc2)c2c(F)c3[nH]ncc3cc2n1-c1ccc(F)c(C)c1")
2
>>> observed_result("CC[C@@](O)(COC)c1c(-c2ccc(C(=O)O)cc2)c2c(F)c3[nH]ncc3cc2n1-c1ccc(F)c(Cl)c1")
8
>>> observed_result("CC[C@@](O)(COC)c1c(-c2ccc(C(=O)O)cc2)c2c(F)c3[nH]ncc3cc2n1-c1ccc(F)c(F)c1")
39
>>> observed_result("CC[C@@](O)(COC)c1c(-c2ccc(C(=O)O)cc2)c2c(F)c3[nH]ncc3cc2n1-c1ccc(F)cc1")
10

// next entry
Return Exposure Multiple (reported value) for this compound: CC[C@@](O)(COC)c1c(-c2ccc(C(=O)O)cc2)c2c(F)c3[nH]ncc3cc2n1-c1ccc(F)c(OC)c1
2

====

- Subject of test: AAT (Homo sapiens, UniProt P01009, E366K)
- Construct: expressed in transfected cells; host or cells: NL20 human bronchial epithelial cells (NL20-SI cell line), with doxycycline added alongside the compounds
- Assay: Compound Quality score (potency in AAT functional assay multiplied by unbound clearance)
- Stated conditions: compound potency (EC50) x unbound clearance; class symbols
Measurement label: Compound Quality

>>> observed_result("CC[C@@](O)(COC)c1c(-c2ccc(C(=O)O)cc2)c2c(F)c3[nH]ncc3cc2n1-c1ccc(F)cc1")
"++++ (“++++” means ≤0.2)"
>>> observed_result("[2H]C1([2H])C([2H])([2H])C([2H])([2H])[C@](O)(c2c(-c3ccc(C(=O)O)cc3)c3c(F)c4[nH]ncc4cc3n2-c2ccc(F)cc2)[C@@]([2H])(OC)C1([2H])[2H]")
"++++ (“++++” means ≤0.2)"
